System: SK-MEL-28 melanoma
Assay summary: NCI-60 one-dose screen, 48 h (100 = growth as untreated, 0 = no growth, -100 = all killed)
Condition info: 10 µM
The panel holds about 83,000 compounds, 20% with a hit somewhere; the sample as a whole holds those more often.
// assign TRUE if growth falls strictly below 90%, else FALSE (ties count as FALSE)

Here are 5 molecules together with their reported answers.
Molecule | Target under test | Label class
COc1ccc2c(c1)C(=O)/C(=C/c1cccc(OCC(=O)c3ccc([N+](=O)[O-])cc3)c1)CO2 | SK-MEL-28 melanoma | TRUE
O=C1CSC(=S)N1/N=C/c1ccc(Cl)s1 | SK-MEL-28 melanoma | FALSE
COc1cc(-c2ccc[nH]2)[nH]c1/C=C1\N=C(C)C(C(=O)NC(C)C)=C1C | SK-MEL-28 melanoma | TRUE
OC[C@H]1OC([S-])[C@H](O)[C@@H](O)[C@@H]1O.[Au+] (some centres undefined) | SK-MEL-28 melanoma | TRUE
C=C(NC(=O)C(=C)NC(=O)c1csc(C2=NC3c4csc(n4)C4NC(=O)c5csc(n5)C(C(C)(O)C(C)O)NC(=O)C5CSC(=N5)C(=CC)NC(=O)C(C(C)O)NC(=O)c5csc(n5)C3(CC2)NC(=O)C(C)NC(=O)C(=C)NC(=O)C(C)NC(=O)C(C(C)CC)NC2C=Cc3c(C(C)O)cc(nc3C2O)C(=O)OC4C)n1)C(N)=O (centres undefined) | SK-MEL-28 melanoma | TRUE

Let's switch to this molecule now.
API: query returns whether the molecule falls strictly under 90% in growth. Query: OC(CNc1ccnc2cc(Cl)ccc12)CNC1CCCCC1 (centres undefined)
TRUE

----------
System: UO-31 renal
Assay summary: NCI-60 one-dose screen, 48 h
Condition info: 10 µM
This is part of a sample that, as a whole, favours compounds with a hit. Of some 83,000 tested, about 20% had one in any assay. Calls of active or inactive are those of the source. The calls were made as follows: active = growth percent below 10; inactive = the rest.
Pick from Y (active), N (inactive) when you respond.

Compound | Target under test | Label class
CCc1c2c(nc3ccc(OC(=O)N4CCC(N5CCCCC5)CC4)cc13)-c1cc3c(c(=O)n1C2)COC(=O)[C@]3(O)CC | UO-31 renal | N

Now for another entry.
Returns: the outcome recorded for `COc1cc(-c2ccc[nH]2)[nH]c1/C=C1\N=C(C)C(C(=O)NC(C)C)=C1C` in this assay.
Y

----------
Test system: RPMI-8226 leukemia
Assay summary: NCI-60 one-dose screen, 48 h (100 = growth as untreated, 0 = no growth, -100 = all killed)
Condition info: 10 µM
Compounds without any hit were thinned out: in the full panel of roughly 83,000, 20% have a hit.
Labelling field: enter label 1 if recorded growth is less than 90%. Enter label 0 if it equals or exceeds that cut-off.

Study these solved cases before continuing.
Molecule | Label class
N#CCc1csc(Cc2ccccc2)n1 | label 0
COc1ccc(C2CC(c3cccs3)=NN2c2ccc(S(N)(=O)=O)cc2)cc1 (stereo not drawn) | label 1
CCNCC(=O)Nc1ccc(C(=O)OCC)cc1 | label 0
CCN(CC)CCCC(C)N=C(C1=C(C(=NC(C)CCCN(CC)CC)c2cccc(OC)c2)C(=O)NC1=O)c1cccc(OC)c1 (stereo not drawn) | label 1
CN1CCN(c2cc3c(cc2F)c(=O)c(C(=O)O)cn3-c2ccc(F)cc2)CC1 | label 0

Turning now to a further molecule:
Answer whether the molecule `CCN(CCCNc1cc2c(c(N)c1S(=O)(=O)O)C(=O)c1ccccc1C2=O)c1ccccc1` has growth strictly less than 90%
label 0
